# maps each entry to its log10(LC retention time)
# TEST NAME: RP, Merck Supelco Ascentis Express C18, 100 × 2.1 mm, 2 µm, 39 °C, 0.3 mL/min, estimated dead time 0.73 min; A: water + 0.1% formic acid, pH 3; B: acetonitrile + 0.1% formic acid, pH 3; gradient (min/%B) 0/5 2/5 17/99.9 20/99.9
# COND: stereoisomer not certain
Counter-ions that a name gives are not always drawn.
REPORTED PROPERTY: log10(LC retention time) (log10 of the value in min)

{"columns": ["COMPOUND", "VALUE OBSERVED"],
 "data": [
  ["O=C(O)CNC(=O)c1ccccc1 [HIPPURATE]", 0.61],
  ["O=c1ccn(C2CC(O)C(CO)O2)c(=O)[nH]1 (stereo not given)", -0.02],
  ["O=C(O)c1cc(O)ccc1O [2,5-DIHYDROXYBENZOATE]", 0.54],
  ["Cn1c(=O)c2c(ncn2C)n(C)c1=O", 0.61],
  ["CC(=O)C1CCC2C3CC=C4CC(OS(=O)(=O)O)CCC4(C)C3CCC12C (stereo not given) [PREGNENOLONE SULFATE]", 0.96],
  ["C[Se]CCC(N)C(=O)O (stereo not given)", -0.05],
  ["CCCCC(N)C(=O)O (stereo not given)", 0.02],
  ["CC(CCC(=O)NCCS(=O)(=O)O)C1CCC2C3CCC4CC(O)CCC4(C)C3CCC12C (stereo not given)", 1.01],
  ["O=C(O)c1ccc(O)cc1 [4-HYDROXYBENZOATE]", 0.53],
  ["CCOC(=O)Cc1c[nH]c2ccccc12 [ETHYL 3-INDOLEACETATE]", 0.96]
]}

====

# TEST NAME: RP, Merck Supelco Ascentis Express C18, 100 × 2.1 mm, 2 µm, 40 °C, 0.25 mL/min, estimated dead time 0.88 min; A: water + 0.1% formic acid, pH 3; B: acetonitrile + 0.1% formic acid, pH 3; gradient (min/%B) 0/5 2/5 17/99.9 20/99.9
# COND: stereoisomer not certain
// classify: if (LC retention time < 5 min) true else false

{"columns": ["COMPOUND", "ASSIGNED CLASS"],
 "data": [
  ["O=Cc1ccc(O)cc1 [4-HYDROXYBENZALDEHYDE]", "true"],
  ["c1ccc2ncccc2c1 [QUINOLINE]", "false"],
  ["O=C(O)c1ccccc1 [BENZOATE]", "false"],
  ["O=C(O)c1ccc(O)cc1 [4-HYDROXYBENZOATE]", "true"],
  ["O=C(O)c1ccc[nH]1 [PYRROLE-2-CARBOXYLATE]", "true"],
  ["CC(=O)NC(CC(C)C)C(=O)O (stereo unspecified) [N-ACETYLLEUCINE]", "false"]
]}

====

# TEST NAME: RP, Merck Supelco Ascentis Express C18, 100 × 2.1 mm, 2 µm, 39 °C, 0.3 mL/min, estimated dead time 0.73 min; A: water + 0.1% formic acid, pH 3; B: acetonitrile + 0.1% formic acid, pH 3; gradient (min/%B) 0/5 2/5 17/99.9 20/99.9
# COND: stereoisomer not certain
Please enter criterion met where LC retention time is greater than or equal to 2 min, and criterion not met where it is lower.

{"columns": ["COMPOUND", "ASSIGNED CLASS"],
 "data": [
  ["Cc1cn(C2CC(O)C(CO)O2)c(=O)[nH]c1=O (stereo not given)", "criterion not met"],
  ["O=C([O-])CCCCCCC(=O)[O-] [SUBERATE]", "criterion met"],
  ["O=C(O)c1ccnc2ccccc12 [4-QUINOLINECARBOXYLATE]", "criterion not met"],
  ["CCCCCCCCCCCCCC(=O)OCC(O)CO (stereo not given) [GLYCEROL-MYRISTATE]", "criterion met"],
  ["CC(CCC(=O)O)C1CCC2C3CCC4CC(O)CCC4(C)C3CCC12C (stereo not given) [LITHOCHOLATE]", "criterion met"],
  ["CC(=O)N1CCCC1C(=O)O (stereo not given)", "criterion not met"],
  ["CC1OC(n2cnc3c(N)ncnc32)C(O)C1O (stereo not given)", "criterion not met"],
  ["CC(=O)NC(CS)C(=O)O (stereo not given)", "criterion not met"],
  ["O=C(O)CCCCCC(=O)O [6-CARBOXYHEXANOATE]", "criterion met"],
  ["CSCC[C@H](NC=O)C(=O)O", "criterion met"]
]}
